All figures here come from patent EP0908457B1.

Test system: Oryza sativa, (L.) Tebonnet
experimentSummary: Rice tolerance to post-transplant applications under flooded paddy conditions (Example 187), ORYSAT (Rice, Tebonnet)
testConditions: 0.0320 kg/ha, herbicidal effect rating 0-9, three to four weeks after treatment
metric: ORYSAT

Reported ORYSAT ( Cc1ccc(OCC(=O)NS(C)(=O)=O)c(-c2noc3cc(F)c(-n4c(=O)cc(C(F)(F)F)n(C)c4=O)cc23)c1 [Example 428] ) = 0.0

Reported ORYSAT ( CCSC(=O)c1nsc2ccc(-n3c(=O)cc(C(F)(F)F)n(C)c3=O)cc12 [Example 422] ) = 0.0

Reported ORYSAT ( Cn1c(C(F)(F)F)cc(=O)n(-c2ccc3snc(/C=N/Nc4ccccc4)c3c2)c1=O [Example 408] ) = 0.0

Reported ORYSAT ( CC(OS(=O)(=O)c1ccccc1)c1nsc2ccc(-n3c(=O)cc(C(F)(F)F)n(C)c3=O)cc12 (centres unmarked) [Example 415] ) = 3.0

Reported ORYSAT ( CN(c1ccc(-c2nsc3ccc(-n4c(=O)cc(C(F)(F)F)n(C)c4=O)cc23)cc1)S(C)(=O)=O [Example 430] ) = 3.0

Reported ORYSAT ( Cn1c(C(F)(F)F)cc(=O)n(-c2ccc3snc(C(=O)OCCCO)c3c2)c1=O [Example 410] ) = 0.0

Reported ORYSAT ( COCCOC(=O)c1nsc2ccc(-n3c(=O)cc(C(F)(F)F)n(C)c3=O)cc12 [Example 411] ) = 0.0

Reported ORYSAT ( Cn1c(C(F)(F)F)cc(=O)n(-c2ccc3snc(COC4CCCCO4)c3c2)c1=O (centres unmarked) [Example 456] ) = 7.0

====

Tested on: Sagittaria pygmaea, L.
experimentSummary: Preemergence weed control under flooded paddy conditions, SAGPY (Arrowhead (Pygmaea)); also: meaning of each grade not given here
Assay type: in vivo
testConditions: Rate 0.5000 kg/ha; preemergence, flooded paddy; rated 3-4 weeks after treatment
metric: herbicidal effect rating, SAGPY
Answer with a bare number; do not write a unit.

Consider the worked cases shown below.
[[record]]
compound = "Cn1c(C(F)(F)F)cc(=O)n(-c2ccc3snc(-c4ccccc4OCC(=O)C(C)(C)C)c3c2)c1=O"
system = "Sagittaria pygmaea, L."
recordedresult = 0.0

[[record]]
compound = "Cc1ccc(C(=O)C(C)Oc2ccccc2-c2nsc3ccc(-n4c(=O)cc(C(F)(F)F)n(C)c4=O)cc23)cc1C (centres unmarked)"
system = "Sagittaria pygmaea, L."
recordedresult = 0.0

[[record]]
compound = "Cn1c(C(F)(F)F)cc(=O)n(-c2ccc3snc(-c4ccccc4OCC(N)=O)c3c2)c1=O"
system = "Sagittaria pygmaea, L."
recordedresult = 4.0

[[record]]
compound = "Cc1ccc(OC(C)C(=O)c2ccc(C)c(C)c2)c(-c2nsc3ccc(-n4c(=O)cc(C(F)(F)F)n(C)c4=O)cc23)c1 (centres unmarked)"
system = "Sagittaria pygmaea, L."
recordedresult = 9.0

[[record]]
compound = "Cc1ccc(OCC(=O)c2ccccc2)c(-c2nsc3ccc(-n4c(=O)cc(C(F)(F)F)n(C)c4=O)cc23)c1"
system = "Sagittaria pygmaea, L."
recordedresult = 0.0


Reported herbicidal effect rating, SAGPY ( CNC(=O)COc1ccc(C)cc1-c1nsc2ccc(-n3c(=O)cc(C(F)(F)F)n(C)c3=O)cc12 ) = 0.0

Reported herbicidal effect rating, SAGPY ( C=CS(=O)(=O)NC(=O)COc1ccc(C)cc1-c1nsc2ccc(-n3c(=O)cc(C(F)(F)F)n(C)c3=O)cc12 ) = 0.0

Reported herbicidal effect rating, SAGPY ( CC(C)S(=O)(=O)NC(=O)COc1ccccc1-c1nsc2ccc(-n3c(=O)cc(C(F)(F)F)n(C)c3=O)cc12 ) = 0.0
